assay-comment: in vitro
conditions: human
Form field: IC20 at 3 h (one value per entry).
Express your answer in µM, writing the number without its unit.

COS(C)(=O)=O [Methylmethanesulfonate, methylmethanesulfonate]	510

Proceed to the following item.
For the compound O=[N+]([O-])c1ccc2c(c1)Cc1ccccc1-2 , give its measured IC20 at 3 h value.
80.8

* * *

assay-comment: in vitro
conditions: human
endpoint-name: IC20 at 48 h (µM)
Express your answer in µM, writing the number without its unit.

Examples from the recorded data:
O=C1CN(/N=C/c2ccc([N+](=O)[O-])o2)C(=O)N1	89.5
NC(=O)N1c2ccccc2C=Cc2ccccc21 [Carbamazepine]	324
CCCCc1oc2ccccc2c1C(=O)c1cc(I)c(OCCN(CC)CC)c(I)c1	29.4

For the compound CN(Cc1cnc2nc(N)nc(N)c2n1)c1ccc(C(=O)N[C@@H](CCC(=O)O)C(=O)O)cc1 [Methotrexate] , give its measured IC20 at 48 h value.
0.144
